system: Rattus norvegicus; experiment: Antiinflammatory activity in albino rat assessed as protection against carrageenan-induced paw edema at 10 umol/kg, sc pretreated for 1 hr followed by carrageenan challenge measured after 4 hrs by plethysmometer (reference value: 0%); type: functional
measured endpoint: Activity (%)
Answer with a number only, understood to be in %.

Some solved entries appear below for comparison.
{"columns": ["smiles string", "Activity, %"],
 "data": [
  ["CS(=O)(=O)c1ccc2c(c1)c1c(n2C(=O)c2ccc(Cl)cc2)CCCC1=O", 88.06],
  ["CS(=O)(=O)c1ccc2c(c1)c1c(n2S(=O)(=O)c2ccc(Cl)cc2)CCCC1", 85.32],
  ["CS(=O)(=O)c1ccc2c(c1)c1c(n2Cc2ccc(Cl)cc2)CCCC1=O", 83.1]
]}

Input line: Given the compound COc1ccc2c(c1)c1c(n2S(=O)(=O)c2ccc(Cl)cc2)CC(C)(C)CC1=O , what is its reported Activity?
Output line: 80.67

Input line: Query (compound): CS(=O)(=O)c1ccc2c(c1)c1c(n2Cc2ccc(Cl)cc2)CCCC1 ; field requested: Activity
Output line: 87.55

Input line: Recorded Activity for COc1ccc2c(c1)c1c(n2Cc2ccc(Cl)cc2)CC(C)(C)CC1=O , please?
Output line: 80.36

Input line: For the compound Cc1ccc(-c2cc(C(F)(F)F)nn2-c2ccc(S(N)(=O)=O)cc2)cc1 , what Activity is on record?
Output line: 96.73

Input line: Which Activity value is on record for CS(=O)(=O)c1ccc2c(c1)c1c(n2S(=O)(=O)c2ccc(Cl)cc2)CCCC1=O ?
Output line: 81.88

Input line: Form field: reported Activity of COc1ccc2c(c1)c1c(n2C(=O)c2ccc(Cl)cc2)CC(C)(C)CC1=O
Output line: 79.66

Input line: Fill blank: measured Activity of the compound CS(=O)(=O)c1ccc2c(c1)c1c(n2C(=O)c2ccc(Cl)cc2)CCCC1 is ____.
Output line: 80.97

====

system: Rattus norvegicus; experiment: In vivo inhibition of rat COX-2 assessed as decrease in plasma PGE2 level by EIA relative to control; assay type: functional
measured endpoint: inhibition (INH) (%)
Express it in %; write the number only.

Solved entries:
{"columns": ["compound", "inhibition (INH) (%)"],
 "data": [
  ["CS(=O)(=O)c1ccc2c(c1)c1c(n2C(=O)c2ccc(Cl)cc2)CCCC1=O", 91.29],
  ["COc1ccc2c(c1)c1c(n2C(=O)c2ccc(Cl)cc2)CC(C)(C)CC1=O", 80.24],
  ["Cc1ccc(-c2cc(C(F)(F)F)nn2-c2ccc(S(N)(=O)=O)cc2)cc1 [CELECOXIB]", 77.25],
  ["COc1ccc2c(c1)c1c(n2Cc2ccc(Cl)cc2)CC(C)(C)CC1=O", 81.16],
  ["CS(=O)(=O)c1ccc2c(c1)c1c(n2C(=O)c2ccc(Cl)cc2)CCCC1", 83.19]
]}

Input line: For the compound CS(=O)(=O)c1ccc2c(c1)c1c(n2Cc2ccc(Cl)cc2)CCCC1 , what inhibition (INH) is on record?
Output line: 89.43
